Origin of values: patent US20210284749A1

Assign MFI to each entry below.
ASSAYED TARGET: T1, human BCMA expressed on cell surface (H929, OPM-2, CHOK1-hBCMA cells) (human, UniProt Q02223 1-184)
T1 construct: also called cell-surface BCMA; BCMA on cell surface
T1 sequence: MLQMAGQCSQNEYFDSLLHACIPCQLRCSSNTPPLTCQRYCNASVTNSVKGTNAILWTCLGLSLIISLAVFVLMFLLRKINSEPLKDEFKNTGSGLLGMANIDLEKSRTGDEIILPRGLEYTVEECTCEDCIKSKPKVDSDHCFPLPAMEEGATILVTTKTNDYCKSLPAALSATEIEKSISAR
EXPERIMENT SUMMARY: FACS on OPM-2 cells, 10 µg/ml antibody, anti-human Fc-FITC; open histogram shifted right of the filled control
Procedure: Multiple myeloma cancer cells H929 (ATCC, CRL9068™) and OPM-2 cell line (DSMZ, ACC 50), which are known to express BCMA, were prepared, and human BCMA-overexpressed CHOK1-hBCMA cell line (constructed by ABIBio) were prepared. 10 μg/ml of the seven IgG antibodies (B58, 5A6, 5D5, 5B5, 1H, 2G, and 5G) purified in Example 1.4 was added to the prepared cells, incubated at 4° C. for 1 hour, and then washed two times with a PBS buffer solution. […]

Examples from the recorded data:
anti-BCMA IgG antibody B58 (antibody, V domains shown, also called B58 antibody) VH: EVQLLESGGGLVQPGGSLRLSCAASGFTFSNYDMSWVRQAPGKGLEWVSWIYPSDSSIYYADSVKGRFTISRDNSKNTLYLQMNSLRAEDTAVYYCARGPFANKYRQFDYWGQGTLVTVSS VL: QSVLTQPPSASGTPGQRVTISCSGSSSNIGSNSVSWYQQLPGTAPKLLIYADSKRPSGVPDRFSGSKSGTSASLAISGLRSEDEADYYCGSWDYSLSGYVFGGGTKLTVL :: 23.6
anti-BCMA IgG antibody 5A6 (antibody, V domains shown, also called 5A6 WT; 5A6 antibody) VH: EVQLLESGGGLVQPGGSLRLSCAASGFTFSNYGVHWVRQAPGKGLEWVSYISYSGGTYYNPSLKSRFTISRDNSKNTLYLQMNSLRAEDTAVYYCARDSDDFGFDYWGQGTLVTVSS VL: QSVLTQPPSASGTPGQRVTISCQGDSLRSYYVNWYQQLPGTAPKLLIYDHSKRPTGVPDRFSGSKSGTSASLAISGLRSEDEADYYCQSYDSSTVVFGGGTKLTVLG :: 54.7

Request: Returns the measured MFI for the input binder. Input: anti-BCMA IgG antibody 5B5 (antibody, V domains shown, also called 5B5 antibody) VH: EVQLLESGGGLVQPGGSLRLSCAASGFTFSGHYWSWVRQAPGKGLEWVSTVSGSGGDTFYADSVKGRFTISRDNSKNTLYLQMNSLRAEDTAVYYCARGHSVMDVWGQGTLVTVSS VL: EIVLTQSPGTLSLSPGERATLSCRASQGIDSYVAWYQQKPGQAPRLLIYDASLRATGIPDRFSGSGSGTDFTLTISRLEPEDFAVYYCQQYNSWPITFGQGTKLEIKR
Result: 20.9
